Provide the reported IC50 of each item.

[in] # get_value(readout= IC50, system= Acetylcholinesterase (Electrophorus electricus, UniProt O42275)) for COC(=O)[C@@]12C[C@@H]3C[C@H]([C@@H](C)O)[C@@H]1N(CCc1c2[nH]c2ccc(OC)cc12)C3 [19(R)-HEYNEANINE]
[out] 730 µM

[in] Can you look up IC50 on Acetylcholinesterase (Electrophorus electricus, UniProt O42275) for `CC[C@H]1C[C@@H]2CN3CCc4c([nH]c5ccc(O)cc45)[C@](C(=O)OC)(C2)[C@H]13` ?
[out] 29 µM

[in] Form field: IC50 recorded for CC[C@H]1C[C@@H]2CN3CCc4c([nH]c5ccc(OC)cc45)[C@](C(=O)OC)(C2)[C@H]13 [VOACANGINE] with Acetylcholinesterase (Electrophorus electricus, UniProt O42275) (enter value)
[out] 4.4 µM

[in] Param readout = IC50; param system = Acetylcholinesterase (Electrophorus electricus, UniProt O42275); param query = COC(=O)[C@@]12C[C@@H]3C[C@H]([C@H](C)O)[C@@H]1N(CC[C@]1(O)C2=Nc2ccccc21)C3 [HEYNEANINE HYDROXYINDOLENINE] ; response: value
Sequence (O42275 whole entry): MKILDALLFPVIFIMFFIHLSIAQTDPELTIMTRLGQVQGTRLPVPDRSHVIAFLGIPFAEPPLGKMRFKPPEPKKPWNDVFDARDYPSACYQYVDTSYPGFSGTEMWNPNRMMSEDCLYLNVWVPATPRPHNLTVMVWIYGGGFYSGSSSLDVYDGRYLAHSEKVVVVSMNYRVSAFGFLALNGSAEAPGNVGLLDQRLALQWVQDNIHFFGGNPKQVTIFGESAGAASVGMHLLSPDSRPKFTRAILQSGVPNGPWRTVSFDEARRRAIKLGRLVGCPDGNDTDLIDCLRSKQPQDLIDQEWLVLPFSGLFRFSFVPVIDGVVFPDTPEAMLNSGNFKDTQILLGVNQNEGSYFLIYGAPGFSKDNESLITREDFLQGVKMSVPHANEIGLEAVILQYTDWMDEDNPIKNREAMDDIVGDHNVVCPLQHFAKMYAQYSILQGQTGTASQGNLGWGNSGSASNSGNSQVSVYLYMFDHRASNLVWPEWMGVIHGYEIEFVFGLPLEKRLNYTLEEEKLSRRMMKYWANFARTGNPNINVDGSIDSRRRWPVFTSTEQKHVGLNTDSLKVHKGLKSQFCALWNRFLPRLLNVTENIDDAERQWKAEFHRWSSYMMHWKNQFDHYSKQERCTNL
[out] > 1000 µM

[in] Provide value of IC50 for this record tested with Acetylcholinesterase (Electrophorus electricus, UniProt O42275): CC[C@H]1C[C@@H]2CN3CC[C@]4(O)C(=Nc5ccccc54)[C@](C(=O)OC)(C2)[C@H]13 [CORONARIDINE HYDROXYINDOLENINE]
[out] > 1000 µM

[in] Can you look up IC50 on Acetylcholinesterase (Electrophorus electricus, UniProt O42275) for CC[C@H]1C[C@@H]2CN3CCc4c([nH]c5ccccc45)[C@](C(=O)OC)(C2)[C@H]13 [CORONARIDINE] ?
[out] 8.6 µM

[in] Acetylcholinesterase (Electrophorus electricus, UniProt O42275) / IC50 / COC(=O)[C@@]12C[C@@H]3C[C@H]([C@H](C)O)[C@@H]1N(CCc1c2[nH]c2ccc(OC)cc12)C3 [VOACRISTINE] : value?
[out] 420 µM

[in] Fill in the recorded IC50 for this molecule, with Acetylcholinesterase (Electrophorus electricus, UniProt O42275) as test system: C/C=C1/CN(C)[C@H]2Cc3c([nH]c4ccccc34)C(=O)C[C@H]1[C@@H]2C(=O)OC [VOBASINE]
[out] > 1000 µM
